Conditions: in methanol, 293.15 K
observable: solubility (mole fraction)
Write the number on its own, no unit after it.

Item under review: C[C@H]1[C@H](C)CC[C@]2(C(=O)O[C@@H]3O[C@H](CO[C@@H]4O[C@H](CO)[C@@H](O[C@@H]5O[C@@H](C)[C@H](O)[C@@H](O)[C@H]5O)[C@H](O)[C@H]4O)[C@@H](O)[C@H](O)[C@H]3O)CC[C@]3(C)C(=CC[C@@H]4[C@@]5(C)C[C@@H](O)[C@H](O)[C@@](C)(CO)[C@@H]5CC[C@]43C)[C@H]12 . Reported solubility (mole fraction)? 0.00103

====

Settings: in methanol, 288.15 K
observable: solubility (mole fraction)
Write the number on its own, no unit after it.

Item under review: C[C@H]1[C@H](C)CC[C@]2(C(=O)O[C@@H]3O[C@H](CO[C@@H]4O[C@H](CO)[C@@H](O[C@@H]5O[C@@H](C)[C@H](O)[C@@H](O)[C@H]5O)[C@H](O)[C@H]4O)[C@@H](O)[C@H](O)[C@H]3O)CC[C@]3(C)C(=CC[C@@H]4[C@@]5(C)C[C@@H](O)[C@H](O)[C@@](C)(CO)[C@@H]5CC[C@]43C)[C@H]12 . Reported solubility (mole fraction)? 0.000973

The measured values listed here are drawn from BigSolDB 2.1.
